Values were extracted from ChEMBL document CHEMBL3585303.

Assay: Unbound fraction in human plasma
Assay type: ADME, cell-free
MEASURE_NAME: fraction unbound
Give bare numbers.

COMPOUND | fraction unbound
N#Cc1ccc(OCCCN2CCC(C(O)(c3nccs3)C3CCCC3)CC2)cc1 (stereo not given) | 0.117
NS(=O)(=O)c1ccc(OCCCN2CCC(C(O)(c3cccc(F)c3)c3nccs3)CC2)cc1 (stereo not given) | 0.17
N#Cc1ccc(OCCCN2CCC(C(O)(c3cccc(F)c3)c3nccs3)CC2)cc1 (stereo not given) | 0.04
N#Cc1ccc(OCCCN2CCC(C(O)(c3ccccc3)C3CCCC3)CC2)cc1 (stereo not given) | 0.004

Fill in: fraction unbound of NS(=O)(=O)c1ccc(OCCCN2CCC(C(O)(c3ccccn3)C3CCCC3)CC2)cc1 (racemic) is ___
0.291
